- setup.conditions: pH 2.7
Marks after values point to notes of the source that are not given here.
A collection of compounds and their measured LogP

compound	LogP
C=CCCCCC(=O)Nc1cccc(CO/N=C(/c2ccccc2)c2noc(=O)n2C)n1 [Example 167]	3.89 [a]
COc1cccc(OCC(=O)Nc2nc(CO/N=C(/c3ccccc3)c3noc(=O)n3C)cs2)c1 [Example 318]	3.53 [a]
Cn1c(/C(=N\OCc2cccc(NC(=O)CC3CC4CCC3C4)n2)c2ccccc2)noc1=O (centres unmarked) [Example 78]	4.39 [a]
Cn1c(/C(=N\OCc2cccc(NC(=O)c3cccc(Br)c3)n2)c2ccccc2)noc1=O [Example 380]	4.16 [a]
CCn1c(/C(=N\OCc2cccc(NC(=O)OC(C)(C)C)n2)c2ccccc2)noc1=O [Example 152]	4.26 [a]
Cn1c(/C(=N\OCc2cccc(NC(=O)OCc3ccccc3Cl)n2)c2ccccc2)noc1=O [compound 413]	4.34 [a]
CCCCOCC(=O)Nc1cccc(CO/N=C(/c2ccccc2)c2noc(=O)n2C)n1 [Example 240]	3.97 [a]
CCCCCCCOC(=O)Nc1cccc(CO/N=C(/c2ccccc2)c2noc(=O)n2C)n1 [compound 419]	5.25 [a]
